Test system: SNB-19 CNS
Assay: NCI tumour cell line growth inhibition, 48 h
Readout name: TGI (µM)
One number for each entry, in µM.

Count: 7. Required value per item: TGI.
1. Cc1[nH]nc(C(=O)N/N=C/c2cccs2)c1N=NN(C)C
2. O=C(O)c1c(Cl)c(Cl)c(Cl)c(Cl)c1-c1c2cc(I)c(=O)c(I)c-2oc2c(I)c(O)c(I)cc12
3. O=c1c2cc(Cl)ccc2n2nnc3ccc(NCCNCCO)c1c32
4. NCCCN1CCN(CCCNc2ccc3ncn4c5ccccc5c(=O)c2c34)CC1
5. CC[N+]1(C)CCC(O)(/C=C/c2ccc(Cl)c(Cl)c2)C(C(=O)/C=C/c2ccc(Cl)c(Cl)c2)C1 (configuration not stated)
6. CC(Cl)CC(=O)Nc1ccc2c(c1)oc(=O)c1cc(NC(=O)CC(C)Cl)ccc12 (configuration not stated)
7. C=C1C(=O)O[C@H]2[C@H](OC(C)=O)[C@@H](C)CCC/C(C)=C/CC[C@]3(CO3)[C@H](O)C[C@@H]12

Output:
27.6
63.8
5.07
4.46
17.3
69.7
28.5

Count: 3. Required value per item: TGI.
1. COc1ccc(C2CC(C)=Nc3c([nH]c(=S)[nH]c3=O)N2)cc1 (configuration not stated)
2. CCCCCCCCCCCOCCC1C(C(C)OCCN2CCCC2)OC2OC(C)(C)OC21 (configuration not stated)
3. CC1=C[C@H]2C[C@@]3(C)O[C@@H]([C@]4(C)CC[C@H]([C@@H](C)C(=O)O)OO4)CC3C(C)(C)[C@H]2CC1 (some centres not stated)

Output:
37.5
13.7
3.28

Count: 6. Required value per item: TGI.
1. N#CC(C#N)=C/C=C/c1cccc([N+](=O)[O-])c1
2. COc1ccc(/C=C(\C#N)c2nc(-c3cc4ccccc4oc3=O)cs2)cc1
3. O=C(O)CCN1C(=O)/C(=C/C(Cl)=C/c2ccccc2)SC1=S
4. Nc1ncnc2c(C3OC(CO)C(O)C3O)c[nH]c12 (configuration not stated)
5. C=C1C(=O)OC2C1CC1OC2C(C)CCC/C(C)=C\CCC1(C)O (configuration not stated)
6. Cc1ccc(N=Nc2cc(=O)[nH]c(=O)[nH]2)cc1C

Output:
1: 16; 2: 34.9; 3: 13.3; 4: 8.69; 5: 103; 6: 35.2

Count: 3. Required value per item: TGI.
1. CC(C)(CN1CCCCC1)C(=O)CC(SCCS(=O)(=O)O)c1ccc(Cl)c(Cl)c1 (configuration not stated)
2. O=[N+]([O-])C(=C(c1ccccc1)c1ccccc1)[N+](=O)[O-]
3. CCOc1cc(C=Nc2ccc(Oc3ccc(Cl)cc3)c(Cl)c2)ccc1O

Output:
[23.1, 31.3, 62.1]
